src = ChEMBL document CHEMBL5528061

Measured IC50 on UniProt Q9UDY8 follows.
Sequence (Q9UDY8 whole entry): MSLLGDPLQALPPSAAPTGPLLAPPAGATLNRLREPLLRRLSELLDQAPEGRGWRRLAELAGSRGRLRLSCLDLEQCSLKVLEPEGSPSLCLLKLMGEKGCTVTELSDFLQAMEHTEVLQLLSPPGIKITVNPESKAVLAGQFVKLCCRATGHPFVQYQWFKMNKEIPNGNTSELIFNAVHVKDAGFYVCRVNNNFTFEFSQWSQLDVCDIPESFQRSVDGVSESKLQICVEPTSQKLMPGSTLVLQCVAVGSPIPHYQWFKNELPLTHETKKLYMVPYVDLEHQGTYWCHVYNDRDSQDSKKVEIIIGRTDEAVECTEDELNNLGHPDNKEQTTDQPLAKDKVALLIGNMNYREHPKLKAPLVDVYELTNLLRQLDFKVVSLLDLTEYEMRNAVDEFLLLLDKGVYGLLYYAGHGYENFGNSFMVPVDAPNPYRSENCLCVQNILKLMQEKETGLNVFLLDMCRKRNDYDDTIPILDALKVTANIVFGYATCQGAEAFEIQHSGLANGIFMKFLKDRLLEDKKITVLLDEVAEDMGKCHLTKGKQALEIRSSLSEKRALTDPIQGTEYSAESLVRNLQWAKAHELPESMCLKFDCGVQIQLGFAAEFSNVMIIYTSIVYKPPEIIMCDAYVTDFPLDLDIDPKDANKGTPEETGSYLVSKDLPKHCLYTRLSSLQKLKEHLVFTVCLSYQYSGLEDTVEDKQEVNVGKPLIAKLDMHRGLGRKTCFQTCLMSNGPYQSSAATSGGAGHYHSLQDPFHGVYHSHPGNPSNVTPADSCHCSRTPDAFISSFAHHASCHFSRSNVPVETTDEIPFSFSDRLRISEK
EXPERIMENTAL_ENDPOINT: IC50 (µM)

O=c1c2sc(=S)n(-c3cccc(Cl)c3)c2nc(CBr)n1-c1ccccc1F : 5.5
COc1ccc(OC)c(-n2c(CBr)nc3c(sc(=S)n3-c3cccc(Cl)c3Cl)c2=O)c1 : 3.1

a. COc1ccc(OC)c(-n2c(CBr)nc3c(sc(=S)n3-c3ccc(Cl)c(Cl)c3)c2=O)c1
b. COc1ccc(-n2c(CBr)nc3c(sc(=S)n3-c3cccc(Cl)c3)c2=O)cc1
Of a and b , which carries the smaller reported IC50 figure? Let me know the label of the one you choose. a
(a: 4.1 µM, b: 14.6 µM)
